- tested_on: T1, Human CD33 full length (human, UniProt P20138 18-364)
- T1 construct: Stably expressed on HEK293F cells by lentiviral transduction; also called Human CD33 (on HEK293F cells)
- test_description: flow cytometry on HEK293F cells expressing human CD33
quantity: mean fluorescence intensity at 60 nM mAb (MFI)
# value in MFI; strip the unit string

Worked examples follow.
>>> reading("C33B909 (antibody, V domains shown, OMNIMouse mAb; HC C33H249, LC C33L115 (same IDs as C33B901); the campaign was cloned into both IgG1 and IgG4 PAA) VH: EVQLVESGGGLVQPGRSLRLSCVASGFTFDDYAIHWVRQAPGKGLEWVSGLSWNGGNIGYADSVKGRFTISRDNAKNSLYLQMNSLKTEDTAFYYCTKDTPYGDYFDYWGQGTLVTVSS VL: DIQMTQSPSSVWASVGDRVTITCRASQGISSWLAWYQQQPGKAPNLLIYRSSSLQSGVPSRFSGSGSGTDFTLTISSLQPEDFATYYCQQDNSFPYTFGQGTKLEIKR")
176
>>> reading("C33B914 (antibody, V domains shown, OMNIMouse mAb; HC C33H254, LC C33L120 (same IDs as C33B906); also called C33F552) VH: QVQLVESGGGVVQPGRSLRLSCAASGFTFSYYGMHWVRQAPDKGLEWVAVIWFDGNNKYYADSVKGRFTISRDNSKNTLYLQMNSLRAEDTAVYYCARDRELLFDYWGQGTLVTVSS VL: SYELTQPPSVSVSPGQTASITCSGDELGDMYACWYQQKPGQSPLVVIYQDSKRPSGIPERFSGSNSGNTATLTISGTQAMDEAAYYCQTWDTRIAVFGGGTNLTVLG")
304000

stdin: Fill in the blank: the reported mean fluorescence intensity at 60 nM mAb of C33B915 (antibody, V domains shown, OMNIMouse mAb; HC C33H255, LC C33L121 (same IDs as C33B907); also called C33F553) VH: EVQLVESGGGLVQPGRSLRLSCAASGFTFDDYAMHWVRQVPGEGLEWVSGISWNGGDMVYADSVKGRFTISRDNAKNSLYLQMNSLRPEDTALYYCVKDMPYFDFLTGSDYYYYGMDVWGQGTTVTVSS VL: SYELTQPPSVSVSPGQTASITCSGDNLGNEHVCWYHQKPGQSPVLVIYQNNKRPSGIPERFSGSNSGNTATLSISGTQATDEADYYCQAWDSTTAVFGGGTKLTVLG is ____.
stdout: 390000

stdin: Can you handle C33B910 (antibody, V domains shown, OMNIMouse mAb; HC C33H250, LC C33L116 (same IDs as C33B902)) VH: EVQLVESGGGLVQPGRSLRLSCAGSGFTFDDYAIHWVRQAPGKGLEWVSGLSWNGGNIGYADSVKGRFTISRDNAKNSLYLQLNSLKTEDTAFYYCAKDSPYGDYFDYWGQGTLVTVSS VL: DIQMTQSPSSEWASVGDRVTITCRASQGISSWLAWYQQKPGKAPKLLIYGASSWQSGVPSRFSGSGSGTDFTLTISSLQPEDFATYYCQQDNSFPYTFGQGTKLEIKR next?
stdout: 214
